Recorded values, source paper PMC9482650.

- assayedSystem: NOS1, P29475
- Sequence (P29475 9-101): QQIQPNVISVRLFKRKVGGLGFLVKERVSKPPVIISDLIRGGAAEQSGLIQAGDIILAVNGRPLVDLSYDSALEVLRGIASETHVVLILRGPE
- assayInfo: holdup assay
- Set-up: key: below the threshold = too weak to quantify, mostly under pKd 3.1 to 4
- conditionInfo: plain residues with an end cap or a label only (N-terminal biotin on a linker: ado-ado)
readoutName: pKd

## Task Quick check: pKd of QKNKDKEYYV [NRXN3_rs746444206, Q9Y4C0] ?
## Result 3.88

## Task Another binder: RGGFGRQTQI [NCBP2L, A6PVI3]
## Result 4.08

## Task Same read-out for TETASVCTKV [SLC23A1, Q9UHI7] ?
## Result 3.62

## Task Entry to check: FVHPILQSAV [PRKCA, P17252]
## Result 3.57
